- Target System: Cin5 (UniProt P40917)
- Sequence: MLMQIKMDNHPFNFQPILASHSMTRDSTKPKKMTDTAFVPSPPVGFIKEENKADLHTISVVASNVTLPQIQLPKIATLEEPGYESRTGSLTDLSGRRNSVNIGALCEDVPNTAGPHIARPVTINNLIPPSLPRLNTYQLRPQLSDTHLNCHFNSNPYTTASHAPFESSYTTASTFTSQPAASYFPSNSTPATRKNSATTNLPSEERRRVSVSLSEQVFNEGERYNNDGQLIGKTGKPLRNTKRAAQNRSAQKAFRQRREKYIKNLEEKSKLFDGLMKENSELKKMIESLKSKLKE
- Procedure Details: PBM E-score (8-mer binding enrichment) (E-score (-0.5 to 0.5)); higher = stronger / more preferred TF binding
- Recorded Conditions: protein concentration: 100 nM; construct: GST-full length
Over roughly 33,000 sequences, “E-score (-0.5 to 0.5)” has its median near -0.0059; the highest 2% begin near 0.26. Shown is part of a subset that was picked to be rich in the highest values.
Please respond with reported PBM E-score for every item in the list.

For `GTGGCTAA` on Cin5 (UniProt P40917), measured PBM E-score was 0.181

For `ACATAATG` on Cin5 (UniProt P40917), measured PBM E-score was 0.204

For `GACCGCGA` on Cin5 (UniProt P40917), measured PBM E-score was -0.129

For `AGGTCGAC` on Cin5 (UniProt P40917), measured PBM E-score was 0.102
